assay: Hemolytic activity in human RBCs; format: ADME, cell-based, Erythrocyte; settings: red blood cells (RBCs)
Where a SMILES comes first, the peptide text is derived from it. [ ]: non-standard residue; d: D form. The star is where a group is joined. Stearoyl = CCCCCCCCCCCCCCCCCC(=O)*; 3Abz = Nc1cccc(C(=O)O)c1; Orn = NCCC[CH](N)C(=O)O
Decide using HC50 alone. Strictly below 500 µg/mL: class 1. Equal to or above 500 µg/mL: class 0.

compound	class-assignment
CCCCCCCCCCCCCCCC(=O)Nc1cccc(C(=O)NC(CCCN)C(=O)NC(CCCN)C(=O)NC(CCCN)C(N)=O)c1 (stereo unspecified)	class 1
CCCCCCCCCC(=O)Nc1cccc(C(=O)NC(CCCN)C(=O)NC(CCCN)C(=O)NC(CCCN)C(N)=O)c1 (stereo unspecified)	class 0
CCCCCCCCCCCCCCCCCC(=O)Nc1cccc(C(=O)NC(CCCN)C(=O)NC(CCCN)C(=O)NC(CCCN)C(=O)NC(CCCN)C(N)=O)c1 (stereo unspecified) ({Stearoyl-3Abz}-[Orn][Orn][Orn][Orn]-NH2; configuration not given here)	class 1
CCCCCCCCCCCC(=O)Nc1cccc(C(=O)NC(CCCN)C(=O)NC(CCCN)C(=O)NC(CCCN)C(N)=O)c1 (stereo unspecified)	class 0
CCCCCCCCCCCCCCCCCC(=O)Nc1cccc(C(=O)NC(CCCN)C(=O)NC(CCCN)C(=O)NC(CCCN)C(N)=O)c1 (stereo unspecified)	class 1

---

test system: Bacillus subtilis; experiment: Antibacterial activity against Bacillus subtilis MTCC 2763 after 18 hrs by micro dilution broth assay; assay type: functional; settings: MTCC 2763, 18 h
Where a SMILES comes first, the peptide text is derived from it. [ ]: non-standard residue; d: D form. The star is where a group is joined. Myristoyl = CCCCCCCCCCCCCC(=O)*; 3Abz = Nc1cccc(C(=O)O)c1; Orn = NCCC[CH](N)C(=O)O
Decide using MIC alone. Strictly below 100 µg/mL: t. Equal to or above 100 µg/mL: f.

compound	class-assignment
CCCCCCCCCCCCCC(=O)Nc1cccc(C(=O)NC(CCCN)C(=O)NC(CCCN)C(=O)NC(CCCN)C(N)=O)c1 (stereo unspecified)	t
CCCCCCCCCC(=O)Nc1cccc(C(=O)NC(CCCN)C(=O)NC(CCCN)C(=O)NC(CCCN)C(N)=O)c1 (stereo unspecified)	f
CCCCCCCCCCCCCC(=O)Nc1cccc(C(=O)NC(CCCN)C(=O)NC(CCCN)C(=O)NC(CCCN)C(=O)NC(CCCN)C(N)=O)c1 (stereo unspecified) ({Myristoyl-3Abz}-[Orn][Orn][Orn][Orn]-NH2; configuration not given here)	t
CCCCCCCCCCCCCCCCCC(=O)Nc1cccc(C(=O)NC(CCCN)C(=O)NC(CCCN)C(=O)NC(CCCN)C(N)=O)c1 (stereo unspecified)	t
